- Target: Receptor tyrosine-protein kinase erbB-2 (Homo sapiens, UniProt P04626)
- Sequence (P04626 whole entry, the tested form may be a part): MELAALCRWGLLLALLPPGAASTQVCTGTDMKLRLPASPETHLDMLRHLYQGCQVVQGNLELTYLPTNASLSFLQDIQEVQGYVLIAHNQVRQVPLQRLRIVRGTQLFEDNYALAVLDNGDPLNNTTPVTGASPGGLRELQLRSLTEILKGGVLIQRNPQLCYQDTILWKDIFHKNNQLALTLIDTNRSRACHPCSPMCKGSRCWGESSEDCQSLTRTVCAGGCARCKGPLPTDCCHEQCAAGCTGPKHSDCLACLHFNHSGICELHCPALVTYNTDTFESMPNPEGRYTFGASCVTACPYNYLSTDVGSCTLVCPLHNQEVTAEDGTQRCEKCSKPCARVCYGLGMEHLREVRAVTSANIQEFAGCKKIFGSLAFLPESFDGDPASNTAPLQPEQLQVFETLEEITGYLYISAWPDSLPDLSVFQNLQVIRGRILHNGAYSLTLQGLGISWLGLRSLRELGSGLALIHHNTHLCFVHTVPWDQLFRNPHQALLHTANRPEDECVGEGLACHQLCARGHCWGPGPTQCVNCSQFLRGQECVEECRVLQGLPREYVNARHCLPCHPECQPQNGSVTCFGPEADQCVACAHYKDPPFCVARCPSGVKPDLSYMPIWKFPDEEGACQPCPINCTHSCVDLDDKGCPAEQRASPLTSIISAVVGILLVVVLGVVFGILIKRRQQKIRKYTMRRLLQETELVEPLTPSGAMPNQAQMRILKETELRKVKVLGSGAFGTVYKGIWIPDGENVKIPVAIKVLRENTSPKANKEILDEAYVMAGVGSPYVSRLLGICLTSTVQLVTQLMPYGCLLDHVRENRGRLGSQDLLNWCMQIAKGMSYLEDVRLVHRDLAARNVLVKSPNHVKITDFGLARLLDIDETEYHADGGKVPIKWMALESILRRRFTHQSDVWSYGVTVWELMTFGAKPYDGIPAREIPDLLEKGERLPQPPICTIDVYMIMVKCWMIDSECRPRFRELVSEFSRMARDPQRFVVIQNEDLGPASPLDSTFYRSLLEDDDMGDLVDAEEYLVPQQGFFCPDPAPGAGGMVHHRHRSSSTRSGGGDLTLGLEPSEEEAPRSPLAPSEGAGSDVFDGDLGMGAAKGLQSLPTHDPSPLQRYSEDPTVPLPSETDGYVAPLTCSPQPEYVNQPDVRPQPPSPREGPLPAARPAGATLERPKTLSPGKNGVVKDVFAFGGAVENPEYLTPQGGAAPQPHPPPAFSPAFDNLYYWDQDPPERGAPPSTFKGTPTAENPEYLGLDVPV
- Test: Inhibition of His-tagged human recombinant ERBB2 (676 to 1255 residues) expressed in baculovirus expression system using Tyr 06 as substrate preincubated for 1 hr in presence of ATP by Z'-LYTE assay
pIC50: −log10 of the molar value.
In this section we review reported pIC50 values for a set of molecules.
Assay Readout: pIC50

> print(dat)
                                chem.smiles  assay.readout  censoring.qualifier  reported.value
1  CC#CC(=O)Nc1cc2c(Oc3ccc(C(=O)Nc4ccccn4)cc3)ccnc2cc1OCCN1CCOCC1          pIC50                    <            6.00
2  COc1cc2nccc(Oc3ccc(C(=O)Nc4ccccn4)cc3)c2cc1NC(=O)C#CCCN1CCOCC1          pIC50                    =            7.39
3  C=CC(=O)Nc1ccc2nccc(Oc3ccc(C(=O)Nc4cc(CC)ccn4)cc3)c2c1          pIC50                    =            6.57
